Test system: spindle assembly checkpoint
TEST: SAC-Formation - Nocodazole-Induced Assay
Assay type: cell-based
CONDITION INFO: Homo sapiens; HeLa cells, nocodazole 0.1 μg/ml, 24 h, phosphorylated histone H3 on serine 10
ENDPOINT: log10 IC50 (log10 of the value in nM)
Each number you see is log10 of IC50, and the unit inside the log is nM.

Q: Quick one: log10 IC50 for CCc1ccccc1NC(=O)c1c(C)nsc1Nc1cc(C#N)ccn1 ?
A: 2.86

Q: What log10 IC50 value was documented for this molecule, CCc1ccccc1NC(=O)c1c(C)nsc1Nc1cnc2cc(F)ccc2n1 ?
A: 2.53

Q: Param item = CCOC(=O)c1cnc(Nc2snc(C)c2C(=O)Nc2ccccc2CC)s1 ; retrieve measured log10 IC50.
A: 3.08

Q: # lookup: log10 IC50 of CCc1ccccc1NC(=O)c1c(C)nsc1Nc1nc2ccccc2o1
A: 3.26

Q: Item under review: Cc1nsc(Nc2ccc(C(=O)N(C)C)nn2)c1C(=O)Nc1ccc(F)c(F)c1 . Reported log10 IC50?
A: 3.18

Q: log10 IC50 lookup needed for CCOC(=O)c1sc(Nc2snc(C)c2C(=O)Nc2ccc(OC)nc2)nc1C , thanks.
A: 1.96

Q: Report log10 IC50 for Cc1nsc(Nc2cnc3ccccc3n2)c1C(=O)Nc1ccc(OC(C)C)nc1 please.
A: 1.77

Q: Fill in: log10 IC50 of Cc1nsc(Nc2cncc(C(F)(F)F)n2)c1C(=O)Nc1ccc(F)c(F)c1 is ___
A: 1.32

Q: Requested read-out: log10 IC50. Entry: Cc1nsc(Nc2cnccn2)c1C(=O)Nc1ccc(F)c(F)c1
A: 2.32

Q: Tell me the measured log10 IC50 of Cc1nsc(Nc2ccc(C(F)(F)F)nn2)c1C(=O)Nc1ccc(F)c(F)c1 , please.
A: 0.85

Q: Need log10 IC50, item Cc1nsc(Nc2cncc(C(=O)N(C)C)n2)c1C(=O)Nc1ccc(F)c(F)c1
A: 2.72

====

Test system: spindle assembly checkpoint
TEST: SAC-Formation - Nocodazole-Induced Assay
Type: cell-based
CONDITION INFO: Homo sapiens; HeLa cells, nocodazole 0.1 μg/ml, 24 h, phosphorylated histone H3 on serine 10
pIC50: −log10 of the molar value.
Output: class label from pIC50. Mapping: 0 (below 6), 1 (6 to below 7), 2 (7 or more)

Q: Any idea which band COC(=O)c1cnc(Nc2snc(C)c2C(=O)Nc2ccc(OC)nc2)o1 [Example 147] is in?
A: 0

Q: Kindly identify the class of Cc1nsc(Nc2cnc(Cl)cn2)c1C(=O)Nc1ccc(F)c(F)c1 [Example 74] .
A: 2

Q: Lab note: sort CCc1ccccc1NC(=O)c1c(C)nsc1Nc1cnc2ccccc2n1 [Example 19] into the matching pIC50 band.
A: 2

Q: Could you place Cc1nsc(Nc2nc3c(C(F)(F)F)ccnc3s2)c1C(=O)Nc1ccc(F)c(F)c1 [Example 58] in its proper category? Many thanks.
A: 1

Q: Hey, which category is CCc1ccccc1NC(=O)c1c(C)nsc1Nc1ncccc1C [Example 141] in, do you know?
A: 0

Q: Category of Cc1nsc(Nc2nc3c(C(F)(F)F)cccc3s2)c1C(=O)Nc1ccc(Cl)c(Cl)c1 [Example 102] , please.
A: 1

Q: Lab log: CCc1ccccc1NC(=O)c1c(C)nsc1Nc1cnccn1 [Example 1] — assign pIC50 category
A: 0

Q: State the band of CCc1ccccc1NC(=O)c1c(C)nsc1Nc1cnc2cccc(C)c2n1 [Example 33]
A: 1

Q: Which class does Cc1nsc(Nc2cncc(N(C)C)n2)c1C(=O)Nc1ccc(F)c(F)c1 [Example 105] fall in?
A: 0

Q: Dear colleague, I would appreciate it if you could identify the bin for COc1ccc(Oc2ccc(NC(=O)c3c(C)nsc3Nc3ccc(C#N)cn3)cn2)cc1 [Example 157] and reply at your convenience.
A: 0

Q: Into which bin does this compound go? Cc1nsc(Nc2ccc(C#N)cn2)c1C(=O)Nc1ccc(Cl)c(Cl)c1 [Example 62]
A: 2

Q: Hi, small favor: classify Cc1nsc(Nc2cnc3ccccc3n2)c1C(=O)Nc1ccc(F)c(F)c1 [Example 50] by its pIC50 when you get a moment.
A: 2

Q: Exercise: read the entry CCc1ccccc1NC(=O)c1c(C)nsc1Nc1ncnc2ccsc12 [Example 13] and state which class it falls under.
A: 1

Q: Could you place Cc1nsc(Nc2cnc3ccccc3n2)c1C(=O)Nc1ccc(Oc2ccccc2)nc1 [Example 112] in its proper category? Many thanks.
A: 2

Q: Field: class (pIC50) — entry: COc1ccc(NC(=O)c2c(C)nsc2Nc2ncc(C(=O)N(C)C)s2)cn1 [Example 155]
A: 0

Q: Any idea which band COc1ccc(NC(=O)c2c(C)nsc2Nc2ncccc2C#N)cn1 [Example 36] is in?
A: 0

Q: Class? Entry: Cc1nsc(Nc2cc(C(=O)N(C)C)ccn2)c1C(=O)Nc1ccc(F)c(F)c1 [Example 130]
A: 0

Q: Category of CCc1ccccc1NC(=O)c1c(C)nsc1Nc1nc(C)nc2ccccc12 [Example 35] :
A: 1

Each recorded value in this set is attributed to patent US9682995B2.
